For each entry below, report its Post-emergence efficacy against ABUTH in % value.
System: Abutilon theophrasti (ABUTH)
Experiment: B. Herbicidal post-emergence efficacy, ABUTH
Type: in vivo
Conditions: 1280 g/ha, rated visually after about 3 weeks
Could you give me the number in %? Just the number is fine.

Query: What Post-emergence efficacy against ABUTH in % value was documented for this compound, Cc1cccc(Oc2ncc(Cl)cn2)c1OS(=O)(=O)CCCC(F)(F)C(F)(F)F [Example I-69] ?
Result: 100

Query: For O=S(=O)(CCCC(F)(F)F)Oc1c(F)cccc1Oc1ncc(F)cn1 [Example I-42] then?
Result: 100

Query: For N#Cc1cccc(Oc2ncc(Cl)cn2)c1OS(=O)(=O)CC1CC(F)(F)C1 [Example I-79] then?
Result: 100

* * *

Test system: Stellaria media (STEME)
Assay: A. Herbicidal pre-emergence efficacy, STEME
Type: in vivo
Settings: dosage 320 g/ha
Source text: Seeds of mono- and dicotyledonous weed plants were placed in plastic pots in sandy loam soil (doubly sown with one species each of mono- or dicotyledonous weed plants per pot) and covered with soil. […] After about 3 weeks, the efficacy of the preparations was scored visually in comparison with untreated controls as percentages. […]
For each entry below, report its Pre-emergence efficacy against STEME value.
Could you give me the number in %? Just the number is fine.

Query: What Pre-emergence efficacy against STEME value was documented for this molecule, O=S(=O)(CCCCCl)Oc1ccccc1Oc1ncc(Cl)cn1 [Example I-15] ?
Result: 100

Query: For O=S(=O)(CC1CCCO1)Oc1c(F)cccc1Oc1ncc(Cl)cn1 (centres unmarked) [Example I-54] then?
Result: 90

Query: For N#Cc1cc(Cl)cnc1Oc1ccccc1OS(=O)(=O)CCCCl [Example I-59] then?
Result: 100

Query: For O=S(=O)(CCC(F)(F)F)Oc1ccccc1Oc1ncc(Cl)cn1 [Example I-8] then?
Result: 100

Query: For O=S(=O)(CCCCl)Oc1cccc(F)c1Oc1ncc(Cl)cn1 [Example I-13] then?
Result: 100

* * *

For each entry below, report its Post-emergence efficacy against STEME value.
Tested on: Stellaria media (STEME)
Experiment: B. Herbicidal post-emergence efficacy, STEME
Type: in vivo
Details: 80 g/ha
Could you give me the number in %? Just the number is fine.

Query: What Post-emergence efficacy against STEME value was documented for this compound, `O=S(=O)(CCCCl)Oc1ccccc1Oc1ncc(F)cn1` ?
Result: 100

Query: For `CCS(=O)(=O)Oc1ccccc1Oc1ncc(Cl)cn1` then?
Result: 90

Query: For `N#Cc1cccc(Oc2ncc(Cl)cn2)c1OS(=O)(=O)CCCCl` then?
Result: 90

Query: For O=S(=O)(CC1CC1(Cl)Cl)Oc1c(F)cccc1Oc1ncc(Cl)cn1 (centres unmarked) then?
Result: 90

Query: For `CCCCCS(=O)(=O)Oc1ccccc1Oc1ncc(Cl)cn1` then?
Result: 90

Query: For `Cc1cccc(Oc2ncc(F)cn2)c1OS(=O)(=O)CCCC(F)(F)F` then?
Result: 90

Query: For `CC(C)CCS(=O)(=O)Oc1ccccc1Oc1ncc(Cl)cn1` then?
Result: 90

Query: For `O=S(=O)(CCCC(F)F)Oc1c(F)cccc1Oc1ncc(Cl)cn1` then?
Result: 90

Query: For `O=S(=O)(CCCCl)Oc1ccccc1Oc1ncc(Cl)cn1` then?
Result: 90

Query: For `O=S(=O)(CCCC(F)(F)F)Oc1c(Cl)cccc1Oc1ncc(Br)cn1` then?
Result: 100

Query: For `O=S(=O)(CCC1CC1)Oc1c(F)cccc1Oc1ncc(Cl)cn1` then?
Result: 90

Query: For `Cc1cccc(Oc2ncc(Br)cn2)c1OS(=O)(=O)CCC(F)(F)F` then?
Result: 90

Query: For `Cc1cccc(Oc2ncc(Cl)cn2)c1OS(=O)(=O)CCCC(F)(F)F` then?
Result: 90

Query: For `O=S(=O)(CCC(F)(F)F)Oc1c(Cl)cccc1Oc1ncc(Br)cn1` then?
Result: 100

* * *

Tested on: Abutilon theophrasti (ABUTH)
Experiment: C. Herbicidal pre-emergence efficacy, ABUTH
Assay type: in vivo
Settings: 80 g/ha, scored after about 3 weeks
For each entry below, report its Pre-emergence efficacy against ABUTH value.
Could you give me the number in %? Just the number is fine.

Query: What Pre-emergence efficacy against ABUTH value was documented for this compound, `O=S(=O)(CCC(F)(F)F)Oc1ccccc1Oc1ncc(Cl)cn1` ?
Result: 100

Query: For `CCCS(=O)(=O)Oc1ccccc1Oc1ncc(Cl)cn1` then?
Result: 100

Query: For `O=S(=O)(CCCC(F)(F)F)Oc1ccccc1Oc1ncc(Cl)cn1` then?
Result: 100

* * *

Test system: Kochia scoparia (KCHSC)
Assay: E. Herbicidal post-emergence efficacy, KCHSC
Type: in vivo
Settings: application rate 80 g/ha
For each entry below, report its Post-emergence efficacy against KCHSC in % value.
Could you give me the number in %? Just the number is fine.

Query: What Post-emergence efficacy against KCHSC in % value was documented for this compound, O=S(=O)(CC=C(Cl)Cl)Oc1c(F)cccc1Oc1ncc(Cl)cn1 [Example I-85] ?
Result: 80

Query: For O=S(=O)(CCC(F)(F)F)Oc1c(F)cccc1Oc1ncc(F)cn1 [Example I-47] then?
Result: 100

Query: For O=S(=O)(CCCC(F)F)Oc1c(F)cccc1Oc1ncc(Cl)cn1 [Example I-56] then?
Result: 100
